Biological target: MAP4K2 (human)
Assay: radiometric filter-binding kinase assay, Kinase HotSpot
Conditions: compound 0.5 µM; ATP 10 µM

# SMILES_STRING, residual activity
measured = [
    ("O=C1NC(=O)C(c2cn(CCCn3ccnc3)c3ccccc23)=C1Nc1ccccc1", "85.7%"),
    ("CNC(=O)c1cc(Oc2ccc(NC(=O)Nc3ccc(Cl)c(C(F)(F)F)c3)cc2)ccn1", "108%"),
    ("CCCC(=O)Oc1ccc2[nH]c(C(=O)c3cc4ccccc4[nH]3)cc2c1", "95.3%"),
]

* * *

Listing of recorded residual activity by entry.
Molecular target: TGFBR1 (human) (UniProt P36897)
Sequence (P36897 whole entry, looked up): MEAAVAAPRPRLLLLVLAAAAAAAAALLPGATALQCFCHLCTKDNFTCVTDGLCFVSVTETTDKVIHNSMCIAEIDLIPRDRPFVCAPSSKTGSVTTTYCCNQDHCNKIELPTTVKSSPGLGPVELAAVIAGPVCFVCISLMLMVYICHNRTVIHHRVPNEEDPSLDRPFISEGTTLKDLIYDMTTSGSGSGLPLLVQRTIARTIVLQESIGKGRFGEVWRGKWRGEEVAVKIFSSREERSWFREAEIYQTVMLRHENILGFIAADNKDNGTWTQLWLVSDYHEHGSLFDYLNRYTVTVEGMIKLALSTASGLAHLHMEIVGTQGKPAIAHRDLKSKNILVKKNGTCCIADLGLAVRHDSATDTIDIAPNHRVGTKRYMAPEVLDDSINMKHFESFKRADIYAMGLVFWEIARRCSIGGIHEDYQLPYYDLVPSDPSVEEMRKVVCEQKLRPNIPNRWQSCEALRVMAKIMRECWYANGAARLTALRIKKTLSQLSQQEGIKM
Assay: radiometric filter-binding kinase assay, Kinase HotSpot
Conditions: compound 0.5 µM; ATP 10 µM

# COMPOUND, residual activity [%]
records = [
    ("N#C/C(=C(/N)Sc1ccc(N)cc1)c1ccccc1C(F)(F)F", 98.3),
    ("Cc1[nH]c(/C=C2\\C(=O)Nc3ccc(S(=O)(=O)N(C)c4cccc(Cl)c4)cc32)c(C)c1C(=O)N1CCN(C)CC1", 103),
    ("CC[n+]1c(/C=C/N(C)c2ccccc2)n(-c2ccccc2)c2ccc(-c3nc4ccccc4s3)cc21", 102),
    ("CCN(CC)CCNC(=O)c1c(C)[nH]c(/C=C2\\C(=O)Nc3ccc(Cl)cc32)c1C", 95.5),
    ("CC(=O)c1ccc(N2CCOCC2)cc1O", 96.6),
    ("CC(C)N(CCC(=O)c1ccc2ccccc2c1)Cc1ccccc1", 92.5),
    ("Cc1ccc(NC2=CC(=O)c3sc(C)nc3C2=O)cc1", 94.8),
    ("c1ccc(-c2n[nH]c3c2oc2ccccc23)cc1", 94.9),
    ("CNC(=O)c1cc(Oc2ccc(NC(=O)Nc3ccc(Cl)c(C(F)(F)F)c3)cc2)ccn1", 94.1),
    ("CCN(CC)CCNC(=O)c1c(C)[nH]c(/C=C2\\C(=O)Nc3ccc(F)cc32)c1C", 101),
    ("O=c1cc(N2CCOCC2)oc2c1ccc1ccccc12", 98.5),
    ("Nc1ncnc2c1c(-c1ccc(Oc3ccccc3)cc1)cn2C1CCCC1", 96.1),
    ("Cc1ccc(Nc2nccc(N(C)c3ccc4c(C)n(C)nc4c3)n2)cc1S(N)(=O)=O", 103),
    ("COc1ccc(COc2ccc(Cc3cnc(N)nc3N)cc2OC)cc1", 97),
    ("O=C1NC(=O)/C(=C/c2ccc3c(c2)OC(F)(F)O3)S1", 102),
    ("N#CC(C#N)=C(N)/C(C#N)=C/c1ccc(O)cc1", 93),
    ("O=C1NC(=O)C(c2cn(CCCn3ccnc3)c3ccccc23)=C1Nc1ccccc1", 101),
    ("Oc1cccc(-c2nc(N3CCOCC3)c3oc4ncccc4c3n2)c1", 95),
    ("c1ccc(-c2n[nH]cc2-c2ccnc3ccccc23)nc1", 41.6),
    ("CCCC(=O)Oc1ccc2[nH]c(C(=O)c3cc4ccccc4[nH]3)cc2c1", 101),
    ("COc1ccc2c(c[n+](C)c3c4cc5c(cc4ccc23)OCO5)c1OC", 98.5),
    ("O=C(Nc1cccc(Nc2nccc(Nc3cccc(C(F)(F)F)c3)n2)c1)C1CC1", 102),
    ("CC#CC(=O)Nc1cc2c(Nc3ccc(F)c(Cl)c3)ncnc2cn1", 98.7),
    ("O=C1NC(=O)c2c1c1c3ccccc3n3c1c1c2c2ccccc2n1C1CCC3O1", 110),
    ("Cc1ccc(S(=O)(=O)/C=C/C#N)cc1", 103),
    ("CO[C@H]1CC2CC[C@@H](C)[C@@](O)(O2)C(=O)C(=O)N2CCCC[C@H]2C(=O)OC([C@H](C)C[C@@H]2CC[C@@H](O)[C@H](OC)C2)CC(=O)[C@H](C)/C=C(\\C)[C@@H](O)[C@@H](OC)C(=O)[C@H](C)C[C@H](C)/C=C/C=C/C=C/1C (some centres not stated)", 99.5),
    ("CCOC(=O)c1c(C)[nH]c(/C=C2\\C(=O)Nc3ccccc32)c1C", 99.7),
]

* * *

Molecular target: NUAK1 (human)
Test: radiometric filter-binding kinase assay, Kinase HotSpot
Conditions: compound 0.5 µM; ATP 10 µM
Given measured residual activity, output yes (1) if it is greater than or equal to 90% and no (0) if not.

# SMILES_STRING, MEASURED_TARGET, CATEGORY
measured = [
    ("CNc1cc2c(Nc3cccc(Br)c3)ncnc2cn1", "NUAK1 (human)", "yes (1)"),
    ("Nc1ncnc2c1c(-c1ccc(Oc3ccccc3)cc1)cn2C1CCCC1", "NUAK1 (human)", "no (0)"),
    ("Cc1[nH]c(/C=C2\\C(=O)Nc3ccc(S(=O)(=O)N(C)c4cccc(Cl)c4)cc32)c(C)c1C(=O)N1CCN(C)CC1", "NUAK1 (human)", "no (0)"),
    ("COc1ccc2c(c[n+](C)c3c4cc5c(cc4ccc23)OCO5)c1OC", "NUAK1 (human)", "yes (1)"),
    ("COc1cc2ncnc(Nc3cccc(Cl)c3)c2cc1OC", "NUAK1 (human)", "no (0)"),
    ("CC#CC(=O)Nc1cc2c(Nc3ccc(F)c(Cl)c3)ncnc2cn1", "NUAK1 (human)", "yes (1)"),
    ("CCN(CC)C(=O)c1ccc(Nc2nc(OCC3CCCCC3)c3nc[nH]c3n2)cc1", "NUAK1 (human)", "no (0)"),
    ("Oc1cccc(-c2nc(N3CCOCC3)c3oc4ncccc4c3n2)c1", "NUAK1 (human)", "no (0)"),
    ("CCC(=O)Nc1ccc2ncnc(Nc3cccc(Br)c3)c2c1", "NUAK1 (human)", "no (0)"),
    ("CC[n+]1c(/C=C/N(C)c2ccccc2)n(-c2ccccc2)c2ccc(-c3nc4ccccc4s3)cc21", "NUAK1 (human)", "yes (1)"),
]

* * *

Target: TXK (human)
Assay: radiometric filter-binding kinase assay, Kinase HotSpot
Conditions: compound 0.5 µM; ATP 10 µM

# SMILES_STRING, residual activity / %
measured = [
    ("O=S(=O)(c1cccc2cnccc12)N1CCCNCC1", 84.1),
    ("c1ccc(-c2n[nH]c3c2oc2ccccc23)cc1", 81.5),
    ("COc1ccc(COc2ccc(Cc3cnc(N)nc3N)cc2OC)cc1", 101),
    ("CNC(=O)c1cc(Oc2ccc(NC(=O)Nc3ccc(Cl)c(C(F)(F)F)c3)cc2)ccn1", 106),
    ("CNc1cc2c(Nc3cccc(Br)c3)ncnc2cn1", 79.9),
    ("CCN(CC)C(=O)c1ccc(Nc2nc(OCC3CCCCC3)c3nc[nH]c3n2)cc1", 46),
    ("Cc1ccc(Nc2nccc(N(C)c3ccc4c(C)n(C)nc4c3)n2)cc1S(N)(=O)=O", 40.2),
    ("N#CC(C#N)=C(N)/C(C#N)=C/c1ccc(O)cc1", 100),
]

* * *

Biological target: ROS1 (human)
Assay: radiometric filter-binding kinase assay, Kinase HotSpot
Conditions: compound 0.5 µM; ATP 10 µM

# SMILES_STRING, residual activity
rows = [
    ("CNc1cc2c(Nc3cccc(Br)c3)ncnc2cn1", "89.1%"),
    ("Nc1ccc2ncnc(NCCc3ccc(Oc4ccccc4)cc3)c2c1", "97.8%"),
    ("CC(=O)c1ccc(N2CCOCC2)cc1O", "102%"),
    ("CC(C)N(CCC(=O)c1ccc2ccccc2c1)Cc1ccccc1", "113%"),
]

* * *

Examples of compounds with documented residual activity follow.
Target: UniProt Q99759
Sequence (Q99759 whole entry, looked up): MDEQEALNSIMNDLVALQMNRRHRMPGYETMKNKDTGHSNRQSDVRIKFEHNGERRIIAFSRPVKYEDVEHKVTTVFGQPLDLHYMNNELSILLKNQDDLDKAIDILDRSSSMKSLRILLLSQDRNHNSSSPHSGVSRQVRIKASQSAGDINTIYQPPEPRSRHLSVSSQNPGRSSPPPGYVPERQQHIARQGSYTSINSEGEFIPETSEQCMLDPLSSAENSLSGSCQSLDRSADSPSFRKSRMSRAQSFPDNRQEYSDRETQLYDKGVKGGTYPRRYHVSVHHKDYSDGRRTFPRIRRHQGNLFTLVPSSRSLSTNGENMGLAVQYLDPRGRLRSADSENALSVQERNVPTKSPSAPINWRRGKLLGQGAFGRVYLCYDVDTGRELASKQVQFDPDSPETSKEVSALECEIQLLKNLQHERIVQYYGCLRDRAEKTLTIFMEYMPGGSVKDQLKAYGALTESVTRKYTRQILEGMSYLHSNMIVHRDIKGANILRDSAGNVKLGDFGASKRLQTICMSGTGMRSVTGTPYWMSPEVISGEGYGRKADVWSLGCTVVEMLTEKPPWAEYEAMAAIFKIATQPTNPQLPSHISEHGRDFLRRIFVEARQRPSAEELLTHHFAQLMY
Experiment: radiometric filter-binding kinase assay, Kinase HotSpot
Details: compound 0.5 µM; ATP 10 µM

# SMILES_STRING, MEASURED_TARGET, residual activity (%)
records = [
    ("CNc1cc2c(Nc3cccc(Br)c3)ncnc2cn1", "UniProt Q99759", 73.3),
    ("CCOC(=O)c1c(C)[nH]c(/C=C2\\C(=O)Nc3ccccc32)c1C", "UniProt Q99759", 92.8),
    ("Cc1ccc(Nc2nccc(N(C)c3ccc4c(C)n(C)nc4c3)n2)cc1S(N)(=O)=O", "UniProt Q99759", 112),
    ("CCC(=O)Nc1ccc2ncnc(Nc3cccc(Br)c3)c2c1", "UniProt Q99759", 89.8),
    ("CCCC(=O)Oc1ccc2[nH]c(C(=O)c3cc4ccccc4[nH]3)cc2c1", "UniProt Q99759", 91.9),
    ("Cc1ccc(S(=O)(=O)/C=C/C#N)cc1", "UniProt Q99759", 98.1),
    ("O=C1NC(=O)C(c2cn(CCCn3ccnc3)c3ccccc23)=C1Nc1ccccc1", "UniProt Q99759", 95.8),
    ("CC(C)N(CCC(=O)c1ccc2ccccc2c1)Cc1ccccc1", "UniProt Q99759", 102),
    ("CCN(CC)CCNC(=O)c1c(C)[nH]c(/C=C2\\C(=O)Nc3ccc(F)cc32)c1C", "UniProt Q99759", 42),
    ("O=S(=O)(c1cccc2cnccc12)N1CCCNCC1", "UniProt Q99759", 89.3),
    ("COc1cc2ncnc(Nc3cccc(Cl)c3)c2cc1OC", "UniProt Q99759", 88.3),
    ("Cc1ccc(NC2=CC(=O)c3sc(C)nc3C2=O)cc1", "UniProt Q99759", 120),
    ("Nc1ncnc2c1c(-c1ccc(Oc3ccccc3)cc1)cn2C1CCCC1", "UniProt Q99759", 71.2),
]
